system: ChaGo-K-1; assay: relative viability (nuclei count vs DMSO), 5 days (fraction); higher = more cells survive; details: first compound 0.1581 µM
Provide the reported relative viability of each item.
Answers are plain numbers.

{"compound": "CC1(C)CCC(c2ccc(Cl)cc2)=C(CN2CCN(c3ccc(C(=O)NS(=O)(=O)c4ccc(N[C@H](CCN5CCOCC5)CSc5ccccc5)c(S(=O)(=O)C(F)(F)F)c4)cc3)CC2)C1 [Navitoclax] + CC(=O)c1c(C)c2cnc(Nc3ccc(N4CCNCC4)cn3)nc2n(C2CCCC2)c1=O [Palbociclib] (partner 0.5 µM)", "relative viability": 0.903}

Now for the compound whose relative viability we want.
Reported relative viability of CC1(C)CCC(c2ccc(Cl)cc2)=C(CN2CCN(c3ccc(C(=O)NS(=O)(=O)c4ccc(N[C@H](CCN5CCOCC5)CSc5ccccc5)c(S(=O)(=O)C(F)(F)F)c4)cc3)CC2)C1 [Navitoclax] + Nc1nc2[nH]cc(CCc3ccc(C(=O)N[C@@H](CCC(=O)O)C(=O)O)cc3)c2c(=O)[nH]1 [Pemetrexed] (partner 0.2 µM) : 0.268

----------
tested on: NCI-H460; assay: relative viability (nuclei count vs DMSO), 5 days (fraction); higher = more cells survive; conditions: first compound 8 µM
Exam item: assign MET to entries whose relative viability is below 0.5 and NOT MET to entries at or above 0.5. Note that a value of exactly 0.5 receives NOT MET.

Example entries and their recorded answers appear below.
{"compound": "C=C1C(=O)O[C@@H](CCCCCCCC)[C@@H]1C(=O)O [C-75] + C[C@]1(O)C[C@@H](c2nc(-c3ccc4ccc(-c5ccccc5)nc4c3)c3c(N)nccn32)C1 [Linsitinib] (partner 1 µM)", "assigned_label": "NOT MET"}
{"compound": "C=C1C(=O)O[C@@H](CCCCCCCC)[C@@H]1C(=O)O [C-75] + O=C(CCCCCCC(=O)Nc1ccccc1)NO [Vorinostat] (partner 1 µM)", "assigned_label": "NOT MET"}
{"compound": "C=C1C(=O)O[C@@H](CCCCCCCC)[C@@H]1C(=O)O [C-75] + CC1(C)CCC(c2ccc(Cl)cc2)=C(CN2CCN(c3ccc(C(=O)NS(=O)(=O)c4ccc(N[C@H](CCN5CCOCC5)CSc5ccccc5)c(S(=O)(=O)C(F)(F)F)c4)cc3)CC2)C1 [Navitoclax] (partner 0.5 µM)", "assigned_label": "NOT MET"}

I'd appreciate it if you could check whether C=C1C(=O)O[C@@H](CCCCCCCC)[C@@H]1C(=O)O [C-75] + O=C(c1cc(Cc2n[nH]c(=O)c3ccccc23)ccc1F)N1CCN(C(=O)C2CC2)CC1 [Olaparib] (partner 8 µM) has relative viability smaller than 0.5.
MET

I'd appreciate it if you could check whether C=C1C(=O)O[C@@H](CCCCCCCC)[C@@H]1C(=O)O [C-75] + Cc1cc(Nc2cc(N3CCN(C)CC3)nc(Sc3ccc(NC(=O)C4CC4)cc3)n2)n[nH]1 [Tozasertib] (partner 0.1 µM) has relative viability smaller than 0.5.
MET

I'd appreciate it if you could check whether C=C1C(=O)O[C@@H](CCCCCCCC)[C@@H]1C(=O)O [C-75] + COc1cccc2cc(-c3nc([C@H]4CC[C@H](C(=O)O)CC4)n4ncnc(N)c34)[nH]c12 [OSI-027] (partner 0.5 µM) has relative viability smaller than 0.5.
NOT MET

I'd appreciate it if you could check whether C=C1C(=O)O[C@@H](CCCCCCCC)[C@@H]1C(=O)O [C-75] + CCNC(=O)c1noc(-c2cc(C(C)C)c(O)cc2O)c1-c1ccc(CN2CCOCC2)cc1 [Luminespib] (partner 0.01 µM) has relative viability smaller than 0.5.
MET

----------
system: NCI-H1734; assay: relative viability (nuclei count vs DMSO), 5 days (fraction); higher = more cells survive; conditions: first compound 0.01 µM
measurement_kind: relative viability
One number for each entry.

{"compound": "NC(=O)Nc1cc(-c2cccc(F)c2)sc1C(=O)N[C@H]1CCCNC1 [AZD7762] + Cc1cc(Nc2cc(N3CCN(C)CC3)nc(Sc3ccc(NC(=O)C4CC4)cc3)n2)n[nH]1 [Tozasertib] (partner 0.1 µM)", "measurement_target": "NCI-H1734", "relative viability": 0.263}

Hey, can you go through the list below and give me relative viability for every item?
1. NC(=O)Nc1cc(-c2cccc(F)c2)sc1C(=O)N[C@H]1CCCNC1 [AZD7762] + O=C(c1cc(Cc2n[nH]c(=O)c3ccccc23)ccc1F)N1CCN(C(=O)C2CC2)CC1 [Olaparib] (partner 8 µM)
2. NC(=O)Nc1cc(-c2cccc(F)c2)sc1C(=O)N[C@H]1CCCNC1 [AZD7762] + CC(=O)Nc1cccc(-n2c(=O)n(C3CC3)c(=O)c3c(Nc4ccc(I)cc4F)n(C)c(=O)c(C)c32)c1 [Trametinib] (partner 0.02 µM)
3. NC(=O)Nc1cc(-c2cccc(F)c2)sc1C(=O)N[C@H]1CCCNC1 [AZD7762] + CC(=O)c1c(C)c2cnc(Nc3ccc(N4CCNCC4)cn3)nc2n(C2CCCC2)c1=O [Palbociclib] (partner 0.5 µM)
4. NC(=O)Nc1cc(-c2cccc(F)c2)sc1C(=O)N[C@H]1CCCNC1 [AZD7762] + COc1cccc2cc(-c3nc([C@H]4CC[C@H](C(=O)O)CC4)n4ncnc(N)c34)[nH]c12 [OSI-027] (partner 0.5 µM)

[0.746, 0.761, 0.38, 0.638]

----------
test system: RERF-LC-KJ; assay: relative viability (nuclei count vs DMSO), 5 days (fraction); higher = more cells survive; conditions: first compound 2.53 µM
measurement_kind: relative viability
One number for each entry.

{"molecule": "Oc1nc(-c2ccc(C(F)(F)F)cc2)nc2c1CSCC2 [XAV939] + CC(C)C[C@H](NC(=O)[C@H](Cc1ccccc1)NC(=O)c1cnccn1)B(O)O [Bortezomib] (partner 0.002 µM)", "measurement_kind": "relative viability", "recorded_measurement": 0.744}
{"molecule": "C=C1C(=O)O[C@@H](CCCCCCCC)[C@@H]1C(=O)O [C-75] + Nc1ncn([C@H]2C[C@H](O)[C@@H](CO)O2)c(=O)n1 [Decitabine] (partner 2 µM)", "measurement_kind": "relative viability", "recorded_measurement": 0.568}

Reported relative viability of C=C1C(=O)O[C@@H](CCCCCCCC)[C@@H]1C(=O)O [C-75] + O=C(c1cc(Cc2n[nH]c(=O)c3ccccc23)ccc1F)N1CCN(C(=O)C2CC2)CC1 [Olaparib] (partner 8 µM) : 0.729

----------
system: NCI-H1299; test: relative viability (nuclei count vs DMSO), 5 days (fraction); higher = more cells survive; details: first compound 2.53 µM
Exam item: assign MET to entries whose relative viability is below 0.9 and NOT MET to entries at or above 0.9. Note that a value of exactly 0.9 receives NOT MET.

{"molecule": "C=C1C(=O)O[C@@H](CCCCCCCC)[C@@H]1C(=O)O [C-75] + Cc1nc(NC(=O)N2CCC[C@H]2C(N)=O)sc1-c1ccnc(C(C)(C)C(F)(F)F)c1 [Alpelisib] (partner 2 µM)", "assigned_label": "NOT MET"}
{"molecule": "Oc1nc(-c2ccc(C(F)(F)F)cc2)nc2c1CSCC2 [XAV939] + CS(=O)(=O)CCNCc1ccc(-c2ccc3ncnc(Nc4ccc(OCc5cccc(F)c5)c(Cl)c4)c3c2)o1 [Lapatinib] (partner 2 µM)", "assigned_label": "NOT MET"}
{"molecule": "C=C1C(=O)O[C@@H](CCCCCCCC)[C@@H]1C(=O)O [C-75] + CS(=O)(=O)CCNCc1ccc(-c2ccc3ncnc(Nc4ccc(OCc5cccc(F)c5)c(Cl)c4)c3c2)o1 [Lapatinib] (partner 2 µM)", "assigned_label": "NOT MET"}
{"molecule": "Oc1nc(-c2ccc(C(F)(F)F)cc2)nc2c1CSCC2 [XAV939] + C[C@]1(O)C[C@@H](c2nc(-c3ccc4ccc(-c5ccccc5)nc4c3)c3c(N)nccn32)C1 [Linsitinib] (partner 1 µM)", "assigned_label": "NOT MET"}

I'd appreciate it if you could check whether Oc1nc(-c2ccc(C(F)(F)F)cc2)nc2c1CSCC2 [XAV939] + CS(=O)(=O)N1CCN(Cc2cc3nc(-c4cccc5[nH]ncc45)nc(N4CCOCC4)c3s2)CC1 [Pictilisib] (partner 1 µM) has relative viability smaller than 0.9.
MET

I'd appreciate it if you could check whether Oc1nc(-c2ccc(C(F)(F)F)cc2)nc2c1CSCC2 [XAV939] + Cc1nc(NC(=O)N2CCC[C@H]2C(N)=O)sc1-c1ccnc(C(C)(C)C(F)(F)F)c1 [Alpelisib] (partner 2 µM) has relative viability smaller than 0.9.
NOT MET

----------
tested on: NCI-H1666; experiment: relative viability (nuclei count vs DMSO), 5 days (fraction); higher = more cells survive; conditions: first compound 2.53 µM
Provide the reported relative viability of each item.
Give bare numbers.

Here are 3 compounds together with their reported answers.
{"compound": "Oc1nc(-c2ccc(C(F)(F)F)cc2)nc2c1CSCC2 [XAV939] + COc1cccc2cc(-c3nc([C@H]4CC[C@H](C(=O)O)CC4)n4ncnc(N)c34)[nH]c12 [OSI-027] (partner 0.5 µM)", "recorded_measurement": 0.627}
{"compound": "C=C1C(=O)O[C@@H](CCCCCCCC)[C@@H]1C(=O)O [C-75] + CC(C)C[C@H](NC(=O)[C@H](Cc1ccccc1)NC(=O)c1cnccn1)B(O)O [Bortezomib] (partner 0.002 µM)", "recorded_measurement": 0.7}
{"compound": "Oc1nc(-c2ccc(C(F)(F)F)cc2)nc2c1CSCC2 [XAV939] + Cc1cc(Nc2cc(N3CCN(C)CC3)nc(Sc3ccc(NC(=O)C4CC4)cc3)n2)n[nH]1 [Tozasertib] (partner 0.1 µM)", "recorded_measurement": 0.582}

Hey, can you go through the list below and give me relative viability for every item?
1. Oc1nc(-c2ccc(C(F)(F)F)cc2)nc2c1CSCC2 [XAV939] + Cc1nc(Nc2ncc(C(=O)Nc3c(C)cccc3Cl)s2)cc(N2CCN(CCO)CC2)n1 [Dasatinib] (partner 0.075 µM)
2. Oc1nc(-c2ccc(C(F)(F)F)cc2)nc2c1CSCC2 [XAV939] + CCNC(=O)c1noc(-c2cc(C(C)C)c(O)cc2O)c1-c1ccc(CN2CCOCC2)cc1 [Luminespib] (partner 0.01 µM)

[0.744, 0.848]
